Hello, the source for this data is the supplement of paper PMC9170038, in case you need it.

system: K4 kissing-loop RNA reporter; assay: apparent KD of K4 kissing-loop reporter; higher = weaker reporter binding; conditions: Eterna round: R107; input ligand: FMN 200 uM
Record satisfied whenever apparent KD of K4 kissing-loop reporter is at 400 nM or higher; record not satisfied when lower.

Consider the worked cases shown below.
UGUGAUGUGUAGUGUGAUGUUUUGAAGGAUACCAGAGUGUUGUUAUUCCCUUGGCAGCUUGAGUGAUGUUUGAUGUUGUUGUUGU [aawemullin]    not satisfied
GCGCAUGUUAAAGGAUAUAGCAGGUGAUACAAGAAAGUGAGUGAUGUUUAUGUAGAUGAUGAUAUGUUAGAAGGUUAACAAACGC [abcdefghijklmno]    satisfied
UAGUCAUACAGAGGAUAUCGUAUGAGUGAUGUUCAUACGAUAUAAUCUAAUUGUAUAGAUGUUCGACGAGAAGGCUGUAUGACUA [FMN B Ex t1a]    not satisfied

[ask] Exam item: decide whether the reported apparent KD of K4 kissing-loop reporter for CCGGAUUAUGCGGCCGCCACUGAGAAAUUGGAGGUACGCCCUCCCGAUAGUGAUGUUAUCCAUUACAGGACCGGGCAUCUCCUCU [theeternabot_sameState_KL_Trp_B_23] is at least 400 nM.
[reply] satisfied

[ask] Is the recorded value of apparent KD of K4 kissing-loop reporter equal to or greater than 400 nM for this sequence? CUAUGAGUGAUGUUCGUAGGUUGGGCUUGGCAGGAUAUGGGAUCUUCCAGAAGGGCCGAUUCCGGCGAGUGAUGUUCGUUGGUCU [Exclusion FMN A GF30]
[reply] not satisfied

* * *

test system: MS2 coat protein; test: apparent KD of MS2 coat protein; designed switch direction (-1 OFF switch, 1 ON switch): -1; higher = weaker reporter binding; conditions: input ligand: none
READOUT KIND: apparent KD of MS2 coat protein (nM)
Supply the numeric figure in nM, leaving out any unit text.

Some entries whose results are on file:
AAGGAUAGAGGAUAUACGUAGAUACAGAUUCAUGUAGAACUACAUGAGGAUCACCCAUGUAGAAGGCUAUCCUA [Fiskers Ex 2 - 6] (Eterna round: R96, puzzle: Exclusion 2)    29
GUGCAAUGAGGAUAUACGUUGGUGAACAUCUGUGUGCUCCUACAUGAGGAUCACCCAUGUAGAAGGCAUGUCAC [LRO-Excl2-18] (Eterna round: R96, puzzle: Exclusion 2)    14.1

Okay, now this sequence:
The reported apparent KD of MS2 coat protein value, MS2 coat protein, for AUUUAGUGAGGAUAUGUGGCUUCGAUCGUGAGAUCGAGGCUACAGAAGGCACAUGAGGAUCACCCAUGUUCCUG [salish99_ex4_r4_113] (Eterna round: R97, puzzle: Exclusion 4) reads 17.5

* * *

test system: MS2 coat protein; test: apparent KD of MS2 coat protein; designed switch direction (-1 OFF switch, 1 ON switch): -1; higher = weaker reporter binding; settings: input ligand: FMN 200 uM
Label T when apparent KD of MS2 coat protein is at or above 60 nM; otherwise label F.

Some solved entries appear below for comparison.
GGUGUCGUCAGAAGACAUGAGGAUCACCCAUGUAAAUGCACUGAGGAUAUACGGGCGACCGGCGUGUAGAAGGUAGAGCACGAA [Ladivequ] (Eterna round: R96, puzzle: Exclusion NG 3)    F
GGUGAGCUAGGAUAUGCUUUGGGCACGCAUUCCUUCGAUAAACUUGAGGAUCACCCAAGUAGAAGGAGCUUGCC [salish99_ex2_r4_030] (Eterna round: R97, puzzle: Exclusion 2)    F
GUCAUGUCAGGAUAUGCUUAUGAUGGGUGCUCAGACAUGAUGCAGAAGGGACAUGAGGAUCACCCAUGUACUGA [EX4 #15] (Eterna round: R97, puzzle: Exclusion 4)    T
GAGUGCUGAGGAUAUACAUGAGGAUCACCCAUGUGCUUCAGCUAGGAGACUAGCAUCCGUAGAAGGCAGUACUC [Mod of lroppy 24 - Jieux - Exclusion 3] (Eterna round: R97, puzzle: Exclusion 3)    F

[ask] I'd appreciate it if you could say whether GUAGAGUGAGGAUAUACGAGAUCGAUAGAUCGGCGAUCCAAACAUGAGGAUCACCCAUGUAGAAGGCACUCUAC [Mat - Exclusion 2 - Eli Mod - D6] (Eterna round: R97, puzzle: Exclusion 2) has apparent KD of MS2 coat protein at least equal to 60 nM.
[reply] T

* * *

system: K4 kissing-loop RNA reporter; test: apparent KD of K4 kissing-loop reporter; higher = weaker reporter binding; conditions: Eterna round: R107; input ligand: tryptophan 2.4 mM
apparent KD of K4 kissing-loop reporter overview
Lab book: enter the figure in nM, no units written.

Consider the worked cases shown below.
UAUGAAGGUGGAGGAUAUUGAUUGAACCUUGGUCAGGAGUGAUGUUCCGGGAAGCCUUGGGUUCAUCGAGAAGGCCAAGGAUAGU [Extra 2]    238
ACGCGCGCGAGUGAUGUUCGGAGCGGCUGGCAGGAUAUGCCGCAAGGCAGAAGGGUCGUGGCGCGUCCAGGGUAACCUGGACGCG [#2 Exclusion - FMN A Attempt #28 (HarryS)]    455
GCAAAGGCCCAUCGGAAUUCGAGACCAGCACGAGGACCGGUACGGCCGCCACUCGUGCAGUGAUGUUGCACGAAUGGGAAACCGC [Oninanso]    147
AGGUACAAAAGUACCGCUAGAUCCACGGAAGGAGCGCCCGAAAGGGCAGGUAGGUCGCCGGGCAGUGAUGUUGCCGGAUCUAGCA [Omei KL Arginine A SS A v6]    139
UGUCAUGGAAACAUGACCGUUAAAAUAAAUCGAGGACCGGUACGGCCGCCACUCGUAUAGCGGUCAGUGAUGUUGACUGUAGUAC [KL-SSTryp-A form2 sub12 #dotplot2>1]    546

So for AGAUUCGACACGGCCGCCACUUCCAGUGGUCGGUGUCAUGGUGCACAUGAGUGAUGUUCAUGUGGAAGGACCGGGUGUUGAGUCU [KL-XTryp-B3 #analogue] , the logged apparent KD of K4 kissing-loop reporter turned out to be 165

GCGCGUCAUGUCAGCGGUGACACUGUCGAUACCAGCGCCGAAAGGCGCCCUUGGCAGCGACGUGCUGGAGUGAUGUUCCAGCGUG [#2 Exclusion - Theophylline A Attempt #25 (HarryS)] yielded apparent KD of K4 kissing-loop reporter of 184

Lab book: apparent KD of K4 kissing-loop reporter of CUAUGAGUGAUGUUCGUAGGUUGGGCUUGGCAGGAUAUGGGAUCUUCCAGAAGGGCCGAUUCCGGCGAGUGAUGUUCGUUGGUCU [Exclusion FMN A GF30] noted as 43.9

So for UGGAUAUAGUGAUGUUAUAUAGAGAUGGAUACCAGCUAAGAGAAUGGCCCUUGGCAGCCGAAAGAAGUAUCAUUAGAGAAGAAUG [ExTheophyl.Ag] , the logged apparent KD of K4 kissing-loop reporter turned out to be 214

So, UUUAUAUAGUCGGCCGCCACUGGAUUAAUAUUUGUAUAAUCUAGAUCAAAGUGAUGUUUUGAGUCCAGGACCGGGACAUUUGUUA [JR_ExcTryptoB_Sub006] ? Its apparent KD of K4 kissing-loop reporter was 427

Input AAGUUUUAUAAACUCAUGGUUUCGUCAGAUACCAGCCUCGAGAGAGGCCCUUGGCAGCUGCAUGAGUGAUGUUCAUGUUCGAAGA [KL_XTheoA8] . Output apparent KD of K4 kissing-loop reporter: 251

The sequence listed as GUGGUUUACGUAGGAUAUCGGUGAUGAGUAAAUGGAGUGAUGUUCCGAGAUUGAAUAUGAGAUGAGCGAGAAGGGCGGUUUAUGC [FMN B Same State; Euporia Solution 3] shows apparent KD of K4 kissing-loop reporter equal to 54.7

Sure, the documented apparent KD of K4 kissing-loop reporter for UUUGUAUAGGGAAGGAGCGUGAAUGAUAAUGAAUAUAGUGAUGUUAUAUAUAAGAAAGAAUCACAGGUAGGUCGCCCGGAUGAGU [SSArgB.L] is 356

* * *

test system: K4 kissing-loop RNA reporter; test: apparent KD of K4 kissing-loop reporter; higher = weaker reporter binding; conditions: Eterna round: R107; input ligand: arginine 13.2 mM;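 further: bound reporter read as fluorescence of individual clusters on recovered sequencing chips by microscopy, with normalized cluster intensities fitted with a binding model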
apparent KD of K4 kissing-loop reporter: recorded values
Give the value in nM but do not write nM after it.

Worked examples, 4 sequences total:
UAAGAAUAAGUAGCAGUGAUGUUGCUACUACGAGGACCGGUACGGCCGCCACUCGAGCCGUACAAAGUAGCAACUAGUACGAAUA [(H1)-(H2)-(Trp1)-(Trp2)-(T)'-(H)'-(T)'']    194
UAGGAGUGAUGUUCCAUAUCUUGAGCCGAAGGAGCGCCUUUCUAGGCAGGUAGGUCGCGGCAGAAGGUACCAGUGAUGUUGGAAA [Same State Arginine A GF7]    171
AAGGGCGGGACUUUCUCGCCGGAUAGAGAUACCAGCCCAGCAAUGGGCCCUUGGCAGCUCACUGACCUCAGUGAUGUUGAGGUUC [Quintege]    214
GGUUUAUAGGAGGAUACCAGUACGGAUAAAGUACAUUAAUAGUAGAGUGAUGUUCUAAAGUACCCUUGGCAGCUUAGAUUAAGUU [ExTheophylB.I]    177

Lab note: measured apparent KD of K4 kissing-loop reporter of GAUUAAUAAGAGGAUACCAGUACUAAUAAAGUACAUUAAUAGUAGAGUGAUGUUCUAUAGUACCCUUGGCAGCUUAGAGUAAGUU [#09 K4 Theophylline B Exclusion] was 200

Reported apparent KD of K4 kissing-loop reporter ( UUAGUCUAGAGAAGGAGCGAGUGAUGUUUGCUAAGCUAUAUAAUAAAAUAUAGCAAAUUUACUCAGGUAGGUCGCUCUAGACAUU [AK3 Exc Arginine B] ) = 122
